# measurement-protocol: MAD study, plasma pharmacokinetics
# Assay type: in vivo, human
# assay-context: human, plasma, oral, 2 mg/day, MAD Day 1, 2 mg/day; read-out: tmax, median (range)
attribute-measured: Tmax (h)
Write it as a number; the unit h goes unstated.

What measured Tmax goes with `COc1ccc(CO[C@H]2CC[C@@]3(C)C(=CC[C@H]4[C@@H]5CC[C@H](C(C)=O)[C@@]5(C)CC[C@@H]43)C2)cc1` ?
3

====

# measurement-protocol: MAD study, plasma pharmacokinetics
# Type: in vivo, human
# assay-context: human, plasma, oral, 6 mg/day, MAD Day 7, 6 mg/day, 0-264 h; read-out: t½, min-max
attribute-measured: half-life

Data request, read-out half-life, for COc1ccc(CO[C@H]2CC[C@@]3(C)C(=CC[C@H]4[C@@H]5CC[C@H](C(C)=O)[C@@]5(C)CC[C@@H]43)C2)cc1 [AEF0117, 3β-(4-methoxybenzyloxy)pregn-5-en-20-one]
160 to 258 h
